Test: Plasma concentration in ACTH-stimulated cynomolgus monkey at 8 mg/kg, iv administered 5 mins before ACTH challenge measured at 15 mins post dose
Format: ADME, organism-based, Macaca fascicularis

| chemical-structure | concentration at 0.25 h / µM |
| --- | --- |
| CN(CCO)C(=O)c1ccc(Cc2onc3c2C(=O)CC(C)(C)C3)cc1 | 9.6 |

###

Assay: Clearance in human liver microsomes relative to hepatic blood flow
Format: ADME, microsome
Conditions: read-out: CLH
Record 1 (yes) whenever hepatic extraction ratio is at 0.6 or higher; record 0 (no) when lower.

| molecule | assigned-label |
| --- | --- |
| CC1CC(=O)c2c(noc2Cc2ccc(C#N)cc2)C1 (stereo not given) | 0 (no) |
| CN(CCO)C(=O)c1ccc(Cc2onc3c2C(=O)CC(C)(C)C3)cc1 | 0 (no) |
| CC1(C)CC(=O)c2c(noc2Cc2ccc(C#N)cc2)C1 | 0 (no) |
| CC1(C)CC(=O)c2c(noc2Cc2ccc(C(N)=O)cc2)C1 | 0 (no) |
| CC1(C)CC(=O)c2c(noc2Cc2ccc(F)cc2)C1 | 0 (no) |
| CC1CC(=O)c2c(noc2Cc2ccccc2)C1 (stereo not given) | 1 (yes) |
| CC1(C)CC(=O)c2c(noc2Cc2ccc(C(=O)N3CC[C@@H](O)C3)cc2)C1 | 0 (no) |
| N#Cc1ccc(Cc2onc3c2C(=O)CC(C2CC2)C3)cc1 (stereo not given) | 1 (yes) |
| CC1(C)CC(=O)c2c(noc2Cc2ccccc2)C1 | 1 (yes) |
| COc1ccc(Cc2onc3c2C(=O)CC(C)(C)C3)cc1 | 1 (yes) |
| CN1CCN(C(=O)c2ccc(Cc3onc4c3C(=O)CC(C)(C)C4)cc2)CC1=O | 0 (no) |
| CC1(C)CC(=O)c2c(noc2-c2ccccc2)C1 | 1 (yes) |
| O=C1CCCc2noc(Cc3ccccc3)c21 | 1 (yes) |
| CC1(C)CCc2c(noc2Cc2ccc(C#N)cc2)C1 | 0 (no) |
| CC1(C)CC(=O)c2c(noc2Cc2ccc(S(C)(=O)=O)cc2)C1 | 0 (no) |
